Reported melting point values for a set of compounds

Previously resolved entries follow.
>  <COMPOUND>
O=C(O)CC(NS(=O)(=O)c1c(Cl)cc(Cl)cc1Cl)c1ccccc1 (stereo not given)

>  <MEASURE>
melting point

>  <MEAS_VALUE>
218 to 219 °C

$$$$
>  <COMPOUND>
C[C@@H](F)c1nc(N)nc(N[C@@H]2CCOc3ccccc32)n1

>  <MEASURE>
melting point

>  <MEAS_VALUE>
110 to 112 °C

$$$$
>  <COMPOUND>
O=Cc1cc(Cl)cc(C(=O)O)c1O

>  <MEASURE>
melting point

>  <MEAS_VALUE>
218 °C

$$$$
>  <COMPOUND>
CCOC(=O)C1=C(N)OC(C)=C(C(=O)OC(C)C)C1c1cccc([N+](=O)[O-])c1 (stereo not given)

>  <MEASURE>
melting point

>  <MEAS_VALUE>
135 °C

$$$$
>  <COMPOUND>
CCCCCCC(=O)CCCCCCCC(COC(C)=O)(COC(C)=O)NC(C)=O

>  <MEASURE>
melting point

>  <MEAS_VALUE>
88 to 89 °C

$$$$
>  <COMPOUND>
COC(=O)c1c(C)oc(C)c1-c1ccc(F)cc1

>  <MEASURE>
melting point

>  <MEAS_VALUE>
34 to 35 °C

$$$$
>  <COMPOUND>
Cc1[nH]c(=O)c(C#N)cc1-c1ccc2ncc(Cl)n2c1

>  <MEASURE>
melting point

>  <MEAS_VALUE>
> 300 °C

$$$$
>  <COMPOUND>
CC1C(C/C=C/c2ccccc2)C(=O)N(Cc2ccccc2)c2ccccc2N1C(=O)CN1C(=O)c2ccccc2C1=O (stereo not given)

>  <MEASURE>
melting point

>  <MEAS_VALUE>
262 to 264 °C

$$$$

Return reported melting point; argument: `COc1ccc2c(=O)c(-c3ccccc3)c(SCc3ccccn3)oc2c1`
168 to 169 °C

Return reported melting point; argument: CCCCCCCCC(SCCCCCC)C(=O)Nc1c(SC)ccc2ncc(C)cc12 (stereo not given)
137 to 138 °C

Return reported melting point; argument: CCCCCC1COc2cc(C3COC(C4COc5c(cc(F)c(C#N)c5F)C4)OC3)c(F)cc2C1 (stereo not given)
111 °C

Return reported melting point; argument: `CC1=NN=C(c2ccc([N+](=O)[O-])cc2)c2cc(Br)ccc2C1`
200 to 205 °C

Return reported melting point; argument: `N=C(N)Nc1nc(-c2ccccc2[N+](=O)[O-])c2cc(Cl)ccc2n1`
150 °C

Return reported melting point; argument: `Cc1ccc2[nH]ncc2c1N`
197 to 200 °C

Return reported melting point; argument: CC(=O)OC1CSC(Oc2cccc(-c3ccc(Cl)nc3)c2)C(OC(C)=O)C1OC(C)=O (stereo not given)
129 °C

Return reported melting point; argument: `Cc1ccccc1C(=O)Nc1cccc(OCc2ccccc2)c1`
114 to 115 °C

Return reported melting point; argument: Cc1oc(-c2ccccc2)nc1COc1ccc2cc(CCCC3OC(=O)NC3=O)oc2c1 (stereo not given)
159 to 160 °C

Return reported melting point; argument: O=C1OC(O)c2ccc(Cl)cc21 (stereo not given)
108 to 109 °C

Return reported melting point; argument: `COc1ccc(S(=O)(=O)Nc2c(Nc3ccccc3)ncnc2Nc2ccccc2)cc1`
149 to 151 °C

Return reported melting point; argument: `C[C@H](Oc1ccc(-c2cccc(OCC(N)=O)c2)cc1)[C@H](O)CCc1cccnc1`
120 to 122 °C

Reference source: a melting point compilation (Tetko et al.; mined from patent text by program, amines drawn as free bases though some values may be those of a salt)
